switch fluorescence ratio values, listed per item
- Tested on: ATP;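 further: ATP exposure 15 min at 22 °C before imaging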
- ASSAY OVERVIEW: switch fluorescence ratio, 500 uM ATP over buffer (Cy3 cluster intensity, sum of 5 cycles each) (fold (ratio)); higher = stronger signal-on switching upon ATP binding; sequences stand for … in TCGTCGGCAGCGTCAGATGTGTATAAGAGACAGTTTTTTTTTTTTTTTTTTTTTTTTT…TC
- COND: aptamer strand: ATP DNA aptamer (quencher-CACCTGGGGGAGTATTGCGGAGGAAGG + anchor), 100 nM annealed; ATP concentration: 500 uM
Provide a numeric answer; units are not to be included.

ATCGTTAGAA = 1.01
CTGTAATGTT = 0.992
TTGGATTCCC = 0.977
TGTATCATGT = 0.99
CTAATTGAAC = 1.01

Reported switch fluorescence ratio for `TACTACACAC` was 1.41

switch fluorescence ratio reading for `AAGATCACGG` : 0.971

Record summary for `ATGGATTTTT` : reported switch fluorescence ratio = 1.01

Measured switch fluorescence ratio, `ACTTTATTCT` : 1.04

Entry source: the supplement of paper PMC10126150
